{"columns": ["molecule", "melting point"],
 "data": [
  ["CS(=O)(=O)c1ccc(-c2cnn(-c3ccc(F)cc3)c(=O)c2N2CCCCC2)cc1", "80 to 100 °C"],
  ["C=CN(C(=O)CCl)c1c(CC)cccc1CC", "45 to 47 °C"],
  ["COc1ccc2c(c1)c(SC(C)C)c(C(N)=O)n2C", "122 to 124 °C"],
  ["CCCc1nn(-c2ccc(C(F)(F)F)cn2)cc1/C=C/C(=O)OCC", "104 to 105 °C"],
  ["COC(=O)Cc1cc2ccc(OC)cc2n(Cc2ccccc2)c1=O", "118 to 120 °C"],
  ["CS(=O)c1ncc2ccc(=O)[nH]c2n1 (stereo not given)", "237 to 242 °C"],
  ["CC(C)(C)N1C(=O)c2cnc(-c3ccccc3)nc2N(C(=O)CN2CCCCC2)c2ccccc21", "193 to 194 °C"],
  ["CC(=O)NN1CCN(CCc2c[nH]c3ccccc23)CC1", "183 to 186 °C"],
  ["Cc1ccccc1Cc1nc2cc(Cl)c(S(N)(=O)=O)cc2[nH]1", "226 to 230 °C"],
  ["COc1cccc(C23CCCC=C2C(=O)N(CCc2ccc(C)cc2)C(=O)C3)c1 (stereo not given)", "134 to 140 °C"],
  ["CC(C)(C)NCC(O)c1cccc(C#N)c1F (stereo not given)", "88 to 90 °C"],
  ["COc1ccc2c(O)c(C(C)C)cc(Br)c2c1", "81.5 to 83.5 °C"],
  ["O=C1CN(c2nccc(Oc3ccc(NC(=O)c4cc(F)cc(N5CCOCC5)c4)c4ccccc34)n2)CCN1", "108 to 110 °C"],
  ["COc1ccc(C(=O)CCC(=O)O)cc1OC1CCCC1", "111 to 113 °C"],
  ["CN1C(=O)C(c2ccc(OC(F)F)cc2)(c2cccc(C3CC(=O)C3)c2)N=C1N (stereo not given)", "68 to 70 °C"],
  ["CCCCCCCCCCN1CCC2(CC1)CSC1=C(O2)c2ccccc2C(=O)C1=O", "110 to 111 °C"],
  ["CN1C(=O)[C@H](NC(=O)CCc2cccc(Cl)c2)N=C(c2ccccc2)c2ccccc21", "157 to 159 °C"],
  ["C=CCCC(O)=C(C#N)C(=O)Nc1ccc(Cl)c(C)c1", "134 °C"],
  ["CCCCC[C@@H](CNC(=O)Nc1c(OC(C)C)c(C)nn1C(C)(C)C)c1cccc2c1OCO2", "98.5 to 99 °C"],
  ["COc1ccc(CC(=O)O)cc1OCCc1ccccc1", "88 to 89 °C"],
  ["Cn1c(-c2ccc(-n3cnc4ccccc43)cc2)cnc1[C@H](Cc1ccccn1)N(C=O)c1cc2ccccc2o1", "152 to 155 °C"],
  ["CC(C)c1ccc([N+](=O)[O-])c(C(C)C)c1NC(=O)CN1CCN(CCSc2nc3ccccc3o2)CC1", "143 to 145 °C"],
  ["CCc1oc2ccc([N+](=O)[O-])cc2c1C(=O)c1ccc(OC)cc1", "130 °C"],
  ["CCCCc1nc2cnc3cccnc3c2n1CCOc1ccccc1", "150 °C"],
  ["CCOCc1nc2c(N)nc3ccccc3c2n1CC1(C(N)=O)CCCCC1", "221 to 223 °C"],
  ["COCCOC(=O)Cc1cc(Oc2ccc(C(F)(F)F)cc2Cl)ccc1[N+](=O)[O-]", "71.9 to 72.5 °C"],
  ["CNC(=O)COc1nc(N)nc(-c2ccccc2)c1-c1ccc(=O)n(C(C)C)n1", "204 to 206 °C"],
  ["NC(=S)C1(c2ccccn2)CCCS1 (stereo not given)", "192 °C"],
  ["CCOC(=O)c1cc2c3ccccc3[nH]c(=S)n2n1", "242 to 243 °C"],
  ["O=S1(=O)CCON=C1c1ccc(Cl)s1", "113 to 114 °C"],
  ["O=C(C=Cc1ccc(F)cc1)C(=O)Nc1ccc(C(F)(F)F)cc1", "200 to 201 °C"],
  ["CC(CCCn1c(C)nc2c(N)nc3ccccc3c21)=NO", "264 to 266 °C"],
  ["CC1(C)C(C=CC(=O)O)C1C(=O)OC(C#N)c1ccc(F)c(Oc2ccccc2)c1 (stereo not given)", "99 °C"],
  ["CCCCN(C)c1nsc(N)c1C#N", "87 to 89 °C"],
  ["Nc1ccc2nc(-c3ccccc3)sc2c1", "200 to 201 °C"]
]}

----------
Reported values of melting point for individual entries
observable: melting point

{"columns": ["molecule", "observable", "result"],
 "data": [
  ["N#CN=C(Nc1cccnc1)NC(NC(=O)c1ccc(Cl)cc1)C12CC3CC(CC(C3)C1)C2 (centres undefined)", "melting point", "209 to 210 °C"],
  ["Cc1cc(C2CCN(S(=O)(=O)C3(C(=O)NO)CCOCC3)CC2)ccc1-c1cccc(OCCO)n1", "melting point", "193 to 194 °C"],
  ["Cc1c(C)c2c(c(C)c1NC(=O)CC(C)(C)C)C(C1CCCCC1)C(C)(C)O2 (centres undefined)", "melting point", "198 to 199 °C"],
  ["CCOc1ccccc1-c1ccc2cnc(Nc3ccc(N4CCN(C)CC4)cc3)nn12", "melting point", "164 to 165 °C"],
  ["COc1ccc(-c2cc3nccnc3[nH]2)cc1OC", "melting point", "212 to 214 °C"],
  ["COC(=O)c1nc(-c2ccc(CO)cc2)cc(N)c1Cl", "melting point", "138 to 139 °C"],
  ["COc1ccc2c(c1)C13CCN(C#N)C(C2)C1(OC)CCC(=O)C3 (centres undefined)", "melting point", "172 to 176 °C"],
  ["O=Cc1cc(F)cc(Br)c1F", "melting point", "36 to 38 °C"],
  ["O=c1[nH]c2cc(Cl)c(Cl)cc2cc1P(=O)(O)O", "melting point", "> 300 °C"]
]}

----------
Reported values of melting point for individual entries

{"columns": ["smiles_text", "melting point"],
 "data": [
  ["CCCCc1ncc(C=C2C(=O)N(CC(=O)OCC)c3ccccc32)n1Cc1ccc(C(=O)OC)cc1", "118 to 119 °C"],
  ["Brc1oc2ccc(Cc3nnn[nH]3)cc2c1-c1ccccc1", "215 to 217 °C"],
  ["CCCc1c(OCCCSc2cccc(CC(=O)OC)c2F)ccc(C(C)=O)c1O", "63 to 65 °C"],
  ["CN1CN(C)c2nc3n(Cc4ccccc4)c(=O)cc(O)n3c2C1=O", "176 to 182 °C"],
  ["CCOC(=O)c1cc2c3n(ccc-2n1)CC(C(OCC)OCC)=N3", "242 to 244 °C"],
  ["CNC(=O)OCc1c(COC(=O)NC)c(-c2ccc(OC)cc2)n2c1Cc1cc(OC)ccc1-2", "110 to 112 °C"],
  ["CCN(C(=O)OC)c1cccc(-c2ccc3nncn3n2)c1", "131 to 135 °C"],
  ["Cc1cncn1-c1cc(C(=O)O)cc(C(F)(F)F)c1", "243 to 245 °C"],
  ["COc1cc(NC(=O)CCCCCN2CCN(C3CCCCC3)CC2)c2nccc(C)c2c1", "109 to 110 °C"],
  ["N#Cc1cc(C2=Nc3cc(O)c(-c4ccccc4F)cc3NC(=O)C2)ccn1", "> 250 °C"]
]}

----------
observable: melting point

{"columns": ["compound", "observable", "result"],
 "data": [
  ["CCC(CC)CC(=O)C1=C(O)c2cc(OC)c(OC)c(OC)c2C(O)(c2ccc(OC)c(OC)c2)C1C(=O)OC (stereo unspecified)", "melting point", "132 to 133 °C"],
  ["N#CC(N)C=Cc1ccccc1 (stereo unspecified)", "melting point", "79 °C"],
  ["OCCCc1cn(Cc2ccccc2)c2ccccc12", "melting point", "75 °C"],
  ["CC(C)(C)NCC(O)COc1ccccc1C1=NNC(=O)CC1 (stereo unspecified)", "melting point", "138 to 141 °C"],
  ["CC12CC3(C)CC(c4ccc(C(=O)O)cc4)(C1)CC(c1ccc(C(=O)O)cc1)(C2)C3", "melting point", "252 to 255 °C"],
  ["COC(=O)c1ccc(SC)cn1", "melting point", "71 to 73 °C"],
  ["O=C(O)Cc1c(C(=O)c2ccc(-c3nccs3)cc2)[nH]c2cc(Cl)ccc12", "melting point", "230 to 233 °C"],
  ["Cc1cc(-c2cccnc2)n2ncnc2n1", "melting point", "183 to 185 °C"],
  ["CC(NC(=O)CCl)(c1ccccc1)c1ccccc1", "melting point", "73 to 74 °C"],
  ["Cc1ccccc1COc1cccnc1NC(=S)Nc1ccc(Cl)cc1", "melting point", "181 to 183 °C"],
  ["CC(C)(C)c1ccc(CCC2CO2)cc1NC(=O)CC1c2ccccc2Oc2ccccc21 (stereo unspecified)", "melting point", "156 to 157 °C"],
  ["CCOC(=O)C(=CNc1cccc(C)n1)C(=O)OCC", "melting point", "102 to 104 °C"],
  ["CSc1ncc(Cc2ccc(C)nc2)c(=O)[nH]1", "melting point", "197 to 198 °C"],
  ["CNCc1cccc(NC(=O)c2c[nH]c3c2C(=O)CCC3)c1", "melting point", "130 to 132 °C"],
  ["Nc1cccc(NC(=O)C(=O)C(=O)O)c1", "melting point", "246 °C"],
  ["COC(=O)C1CCNC(=O)C1=O (stereo unspecified)", "melting point", "151 to 153 °C"],
  ["C1=C(c2ccncc2)CCC2(C1)OCCO2", "melting point", "67 to 70 °C"],
  ["O=C(NO)c1ccc(C(=O)NOCCC23CC4CC(CC(C4)C2)C3)cc1", "melting point", "198 to 200 °C"],
  ["Fc1cccc(F)c1-c1ccncc1", "melting point", "113 to 114 °C"],
  ["N#Cc1ccc(C2(n3ccnc3)Cc3ccccc3C2)cc1", "melting point", "150 to 152 °C"],
  ["COc1ccc(S(=O)(=O)Oc2ccn3nc(-c4ccccc4)c(-c4ccc(=O)n(C(C)C)n4)c3c2)cc1", "melting point", "155 to 157 °C"],
  ["CC(=O)N1CC(C)(C)c2cc(OC(C)C)ccc21", "melting point", "86 to 87 °C"],
  ["COc1ccc(-c2nc(SCCOCCn3ccnc3C)[nH]c2-c2ccc(OC)cc2)cc1", "melting point", "77 to 79 °C"],
  ["N#Cc1c(-c2ccccc2)c(-c2ccccc2)nn(CCC(=O)NCC(=O)O)c1=O", "melting point", "113 to 115 °C"],
  ["Cc1ccccc1-c1nc(-c2ccc(Cl)cc2)n[nH]1", "melting point", "150 to 151 °C"],
  ["Cc1ccc(C2=Cc3cc(C(=O)N[C@H]4CC[C@H](CN(C)C5CCOCC5)CC4)ccc3OC2)cc1", "melting point", "205 to 207 °C"]
]}
